Where do these numbers come from? They come from the supplement of paper PMC12338614.

B1: library; numbered along this chain (parent)
chain: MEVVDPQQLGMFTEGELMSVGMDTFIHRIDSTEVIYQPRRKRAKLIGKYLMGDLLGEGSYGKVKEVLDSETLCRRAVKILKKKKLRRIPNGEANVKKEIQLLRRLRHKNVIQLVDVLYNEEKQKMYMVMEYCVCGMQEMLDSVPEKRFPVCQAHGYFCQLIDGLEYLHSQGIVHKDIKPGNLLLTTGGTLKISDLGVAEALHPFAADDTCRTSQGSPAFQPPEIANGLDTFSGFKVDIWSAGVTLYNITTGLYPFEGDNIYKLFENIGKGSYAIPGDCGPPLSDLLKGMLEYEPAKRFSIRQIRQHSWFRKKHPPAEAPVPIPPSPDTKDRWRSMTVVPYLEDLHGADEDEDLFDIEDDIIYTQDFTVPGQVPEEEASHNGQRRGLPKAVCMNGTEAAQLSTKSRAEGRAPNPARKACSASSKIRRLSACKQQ

# Variants of: B1
# assay.summary: STK11 functional score (HeLa growth suppression), rescaled enrichment; synonymous median = 1, nonsense median = 0 (normalised score)
# condition.description: with HeLa; variant type: missense
Label true (1) for high-side STK11 functional score (at or above 1) and false (0) for low-side STK11 functional score (below it).

[[record]]
mutant_code = "R384L"
class_label = "true (1)"

[[record]]
mutant_code = "L72I"
class_label = "true (1)"

[[record]]
mutant_code = "D358E"
class_label = "false (0)"

[[record]]
mutant_code = "H379P"
class_label = "true (1)"

[[record]]
mutant_code = "E351Y"
class_label = "true (1)"

[[record]]
mutant_code = "R74F"
class_label = "false (0)"

[[record]]
mutant_code = "D176T"
class_label = "false (0)"

[[record]]
mutant_code = "G163F"
class_label = "false (0)"

[[record]]
mutant_code = "P319S"
class_label = "true (1)"

[[record]]
mutant_code = "M127R"
class_label = "false (0)"

[[record]]
mutant_code = "N94V"
class_label = "false (0)"

[[record]]
mutant_code = "L341S"
class_label = "false (0)"

[[record]]
mutant_code = "A200C"
class_label = "true (1)"

[[record]]
mutant_code = "K235H"
class_label = "true (1)"

[[record]]
mutant_code = "M136W"
class_label = "false (0)"

[[record]]
mutant_code = "K423G"
class_label = "true (1)"

[[record]]
mutant_code = "E342S"
class_label = "true (1)"

[[record]]
mutant_code = "E376V"
class_label = "true (1)"

[[record]]
mutant_code = "P89A"
class_label = "true (1)"

[[record]]
mutant_code = "R297A"
class_label = "false (0)"

[[record]]
mutant_code = "N266D"
class_label = "true (1)"

[[record]]
mutant_code = "V243F"
class_label = "false (0)"

[[record]]
mutant_code = "A414R"
class_label = "true (1)"

[[record]]
mutant_code = "L182I"
class_label = "true (1)"

[[record]]
mutant_code = "V77Q"
class_label = "false (0)"

[[record]]
mutant_code = "G215M"
class_label = "false (0)"

[[record]]
mutant_code = "Q399Y"
class_label = "true (1)"

[[record]]
mutant_code = "S232V"
class_label = "false (0)"

[[record]]
mutant_code = "G135A"
class_label = "true (1)"

[[record]]
mutant_code = "L400S"
class_label = "true (1)"

[[record]]
mutant_code = "Q7C"
class_label = "true (1)"

[[record]]
mutant_code = "Q152L"
class_label = "false (0)"

[[record]]
mutant_code = "Q123P"
class_label = "false (0)"

[[record]]
mutant_code = "V20S"
class_label = "true (1)"

[[record]]
mutant_code = "E351W"
class_label = "true (1)"

[[record]]
mutant_code = "A295D"
class_label = "true (1)"

[[record]]
mutant_code = "P326S"
class_label = "true (1)"

[[record]]
mutant_code = "V197G"
class_label = "false (0)"

[[record]]
mutant_code = "T24C"
class_label = "true (1)"

[[record]]
mutant_code = "L190S"
class_label = "false (0)"

[[record]]
mutant_code = "K64V"
class_label = "true (1)"

[[record]]
mutant_code = "R384F"
class_label = "true (1)"

[[record]]
mutant_code = "F148C"
class_label = "false (0)"

[[record]]
mutant_code = "S334N"
class_label = "true (1)"

[[record]]
mutant_code = "G180H"
class_label = "true (1)"

[[record]]
mutant_code = "T249H"
class_label = "true (1)"

[[record]]
mutant_code = "V63S"
class_label = "true (1)"

[[record]]
mutant_code = "E57K"
class_label = "true (1)"

[[record]]
mutant_code = "K329N"
class_label = "true (1)"

[[record]]
mutant_code = "H379L"
class_label = "true (1)"

[[record]]
mutant_code = "P315L"
class_label = "true (1)"

[[record]]
mutant_code = "L245S"
class_label = "false (0)"

[[record]]
mutant_code = "F219R"
class_label = "false (0)"

[[record]]
mutant_code = "K96L"
class_label = "false (0)"

[[record]]
mutant_code = "T367E"
class_label = "true (1)"

[[record]]
mutant_code = "R104G"
class_label = "false (0)"

[[record]]
mutant_code = "P149R"
class_label = "false (0)"

[[record]]
mutant_code = "K416S"
class_label = "true (1)"

[[record]]
mutant_code = "S169H"
class_label = "true (1)"

[[record]]
mutant_code = "E92A"
class_label = "true (1)"

[[record]]
mutant_code = "Q159M"
class_label = "true (1)"

[[record]]
mutant_code = "S421Y"
class_label = "true (1)"

[[record]]
mutant_code = "L105S"
class_label = "true (1)"

[[record]]
mutant_code = "E145D"
class_label = "true (1)"

[[record]]
mutant_code = "D176F"
class_label = "false (0)"

[[record]]
mutant_code = "G346L"
class_label = "true (1)"

[[record]]
mutant_code = "L140D"
class_label = "false (0)"

[[record]]
mutant_code = "N412W"
class_label = "false (0)"

[[record]]
mutant_code = "T212V"
class_label = "false (0)"

[[record]]
mutant_code = "D141G"
class_label = "true (1)"

[[record]]
mutant_code = "D30V"
class_label = "false (0)"

[[record]]
mutant_code = "V143N"
class_label = "true (1)"

[[record]]
mutant_code = "P387N"
class_label = "true (1)"

